biological target: T1, biotinylated goat anti-human kappa light chain; assay: ELISA; positive control; also: test concentration or dose not given here
T1 construct: Positive control of the ELISA
Catalogue of binders with associated optical density
// units = OD; emit number, no label

| binder | optical density / OD |
| --- | --- |
| 366_C02 (antibody, V domains shown, VH/VL only) VH: EVQLLESGGGLVQPGGSLRLSCAASGFTFSDYSMNWVRQAPGKGLEWVANINYNGGYTGYADSVKGRFTISRDNSKNTLYLQMNSLRAEDTAVYYCARSATWHDTHLDYWGQGTLVTVSS VL: DIQMTQSPSSLSASVGDRVTITCRASQSIVSYLNWYQQKPGKAPKLLIYAATSRASGVPSRFSGSGSGTDFTLTISSLQPEDFATYYCQQSYDNPLTFGGGTKVEIK | 3.43 |

Problem: Can you share its optical density? I mean this binder: 374_C04 (antibody, V domains shown, VH/VL only) VH: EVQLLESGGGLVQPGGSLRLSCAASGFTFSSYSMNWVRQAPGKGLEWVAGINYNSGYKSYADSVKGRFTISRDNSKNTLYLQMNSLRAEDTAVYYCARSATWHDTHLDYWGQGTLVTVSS VL: DIQMTQSPSSLSASVGDRVTITCRASQSILTYLNWYQQKPGKAPKLLIYAASSLQSGVPSRFSGSGSGTDFTLTISSLQPEDFATYYCQQSYELPLTFGGGTKVEIK
Result: 3.17

Problem: What about 371_C09 (antibody, V domains shown, VH/VL only) VH: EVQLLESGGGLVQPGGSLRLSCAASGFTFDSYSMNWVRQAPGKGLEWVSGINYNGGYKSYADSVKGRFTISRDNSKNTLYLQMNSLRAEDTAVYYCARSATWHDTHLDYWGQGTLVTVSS VL: DIQMTQSPSSLSASVGDRVTITCRASQSILTYVNWYQQKPGKAPKLLIYAASSLQSGVPSRFSGSGSGTDFTLTISSLQPEDFATYYCQQSYDNPLTFGGGTKVEIK ?
Result: 3.39

Problem: 375_D05 (antibody, V domains shown, VH/VL only) VH: EVQLLESGGGLVQPGGSLRLSCAASGFTFSSYSMNWVRQAPGKGLEWVASINYNSGYTSYADSVKGRFTISRDNSKNTLYLQMNSLRAEDTAVYYCARSANWHDTHLDYWGQGTLVTVSS VL: DIQMTQSPSSLSASVGDRVTITCRASQSIVSYLNWYQQKPGKAPKLLIYAATSLHSGVPSRFSGSGSGTDFTLTISSLQPEDFATYYCQQSYDTPLTFGGGTKVEIK ?
Result: 3.21

Problem: Let us now turn to 376_D05 (antibody, V domains shown, VH/VL only) VH: EVQLLESGGGLVQPGGSLRLSCAASGFTFSSYSMNWVRQAPGKGLEWVSNINYNGGYKGYADSVKGRFTISRDNSKNTLYLQMNSLRAEDTAVYYCARSANWHDTALDYWGQGTLVTVSS VL: DIQMTQSPSSLSASVGDRVTITCRASQSIVSYVNWYQQKPGKAPKLLIYAATSLASGVPSRFSGSGSGTDFTLTISSLQPEDFATYYCQQSYDTPLTFGGGTKVEIK
Result: 3.34

Problem: Please do the same for 374_H07 (antibody, V domains shown, VH/VL only) VH: EVQLLESGGGLVQPGGSLRLSCAASGFTFDSYGMNWVRQAPGKGLEWVANINYNGGYTGYADSVKGRFTISRDNSKNTLYLQMNSLRAEDTAVYYCARSANWHDTALDYWGQGTLVTVSS VL: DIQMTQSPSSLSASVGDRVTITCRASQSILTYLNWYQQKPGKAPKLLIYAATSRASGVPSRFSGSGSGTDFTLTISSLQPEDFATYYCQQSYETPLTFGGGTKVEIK as well.
Result: 2.97

Problem: Repeat for the following binder: 374_H09 (antibody, V domains shown, VH/VL only) VH: EVQLLESGGGLVQPGGSLRLSCAASGFTFSSYSMNWVRQAPGKGLEWVANINYNSGYKSYADSVKGRFTISRDNSKNTLYLQMNSLRAEDTAVYYCARSANWHDTALDYWGQGTLVTVSS VL: DIQMTQSPSSLSASVGDRVTITCRASQSILSYLNWYQQKPGKAPKLVIYAVTSLASGVPSRFSGSGSGTDFTLTISSLQPEDFATYYCQQSYDLPLTFGGGTKVEIK
Result: 3.04

Problem: Subsequent entry: 369_E10 (antibody, V domains shown, VH/VL only) VH: EVQLLESGGGLVQPGGSLRLSCAASGFTFSSYSMNWVRQAPGKGLEWVSNINYNGGYKSYADSVKGRFTISRDNSKNTLYLQMNSLRAEDTAVYYCARSATWHDTALDYWGQGTLVTVSS VL: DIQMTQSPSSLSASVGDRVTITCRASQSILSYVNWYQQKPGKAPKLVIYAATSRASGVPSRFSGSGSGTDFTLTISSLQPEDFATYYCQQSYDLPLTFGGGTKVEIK
Result: 3.59

Problem: What do you get for 365_F08 (antibody, V domains shown, VH/VL only) VH: EVQLLESGGGLVQPGGSLRLSCAASGFTFDDYGMNWVRQAPGKGLEWVANINYNGGYTSYADSVKGRFTISRDNSKNTLYLQMNSLRAEDTAVYYCARSATWHDTHLDYWGQGTLVTVSS VL: DIQMTQSPSSLSASVGDRVTITCRASQSILSYVNWYQQKPGKAPKLLIYAATSRHSGVPSRFSGSGSGTDFTLTISSLQPEDFATYYCQQSYSLPLTFGGGTKVEIK ?
Result: 3.63

Problem: Same question, 365_D05 (antibody, V domains shown, VH/VL only) VH: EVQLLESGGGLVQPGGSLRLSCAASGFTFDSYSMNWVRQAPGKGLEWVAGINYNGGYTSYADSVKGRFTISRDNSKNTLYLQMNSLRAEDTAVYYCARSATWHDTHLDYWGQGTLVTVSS VL: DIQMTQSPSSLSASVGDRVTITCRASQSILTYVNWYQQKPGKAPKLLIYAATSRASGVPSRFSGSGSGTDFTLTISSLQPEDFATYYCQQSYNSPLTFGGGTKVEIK this time
Result: 3.51
